# Compound, melting point
rows = [
    ("Nc1ccc(CC2CCN(S(=O)(=O)N3CCCCC3)CC2)cc1", "144 to 145 °C"),
    ("CCCn1c(=O)c2[nH]c(C34CCC(C)(C(=O)C3=O)C4(C)C)nc2n(CCC)c1=O (centres undefined)", "200 to 201 °C"),
    ("COCOc1ccc(O)c(CC#N)c1", "68 to 69 °C"),
    ("CCn1cc(C(=O)O)c(=O)c2cc(F)c(N3CCC(CNC4CC4)C3)nc21 (centres undefined)", "271 to 274 °C"),
]

* * *

Property: melting point; scope: individual compounds
Observation Type: melting point

# Compound, Result
data = [
    ("CC(=O)CCc1ccc2c(c1)Cc1ccccc1-2", "99 to 101 °C"),
    ("CN(C)S(=O)(=O)c1ccc(N)cc1C(F)(F)F", "140 to 142 °C"),
    ("CCCCCOC1CCN(S(=O)(=O)C=Cc2ccccc2)C1=O (stereo not drawn)", "66 to 68 °C"),
    ("CCOC(=O)C1=C(C)NC(C)=C(C(=O)OCC)C1c1ccc(Cl)cc1", "151 to 152 °C"),
    ("CCCCCCCCCCCCN1C(=O)CC(c2cc(C(C)(C)C)c(O)c(C(C)(C)C)c2)C1=O (stereo not drawn)", "66 to 70 °C"),
    ("COc1ccc2ncccc2c1C1OC(=O)NC1=O (stereo not drawn)", "144 to 146 °C"),
    ("Cn1ccc2ccccc2c(=NO)c1=O", "225 to 226 °C"),
    ("O=c1[nH]c2ccccc2n(Cc2nnn[nH]2)c1=O", "320 °C"),
]
